Reference source: patent US20070213346A1

SYSTEM_UNDER_TEST: NK2 (Homo sapiens)
ASSAY_DETAILS: Signal transduction (ST), intracellular Ca++ FLIPR, NK2
Format: cell-based
SETTINGS: antagonist, Ca++ transient peak, read-out: NK2 pIC50 (converted)
PARAMETER_MEASURED: IC50 (µM)

COMPOUND	UNITS_TEXT	IC50
O=C(c1ccoc1)N1CCC(N2CCN(CC3CCN(C(=O)c4cc(C(F)(F)F)cc(C(F)(F)F)c4)C(Cc4ccccc4)C3)CC2)C1 (stereo not drawn)	µM	7.41
O=C(c1cccs1)N1CCC(N2CCN(C[C@H]3CCN(C(=O)c4cc(C(F)(F)F)cc(C(F)(F)F)c4)[C@H](Cc4ccccc4)C3)CC2)CC1 (relative stereo)	µM	8.91
O=C(c1cc(C(F)(F)F)cc(C(F)(F)F)c1)N1CCC(CN2CCN(C3CCN(c4ncccn4)CC3)CC2)CC1Cc1ccccc1 (stereo not drawn)	µM	7.24

====

SYSTEM_UNDER_TEST: UniProtKB P29371
Sequence (P29371 whole entry): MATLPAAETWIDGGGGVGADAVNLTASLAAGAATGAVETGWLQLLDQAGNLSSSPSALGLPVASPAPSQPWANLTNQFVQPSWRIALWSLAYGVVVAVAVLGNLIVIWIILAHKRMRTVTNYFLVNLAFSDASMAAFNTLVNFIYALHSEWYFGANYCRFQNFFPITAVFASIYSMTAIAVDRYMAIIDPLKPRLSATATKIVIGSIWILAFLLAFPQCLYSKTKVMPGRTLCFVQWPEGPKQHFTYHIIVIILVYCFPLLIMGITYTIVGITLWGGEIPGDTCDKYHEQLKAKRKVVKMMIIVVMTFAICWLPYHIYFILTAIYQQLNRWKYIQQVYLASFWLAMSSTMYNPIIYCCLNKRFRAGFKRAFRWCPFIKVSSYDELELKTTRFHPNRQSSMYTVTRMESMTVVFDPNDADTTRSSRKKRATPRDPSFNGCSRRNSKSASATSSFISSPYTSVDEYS
ASSAY_DETAILS: Signal transduction (ST), intracellular Ca++ FLIPR, NK3
Format: cell-based
SETTINGS: antagonist, Ca++ transient peak, read-out: NK3 pIC50 (converted)
Procedure: [The source words this procedure for another target and reports this target under the same test.] This test evaluates in vitro functional NK1 antagonistic activity. For the measurements of intracellular Ca^++ concentrations the cells were grown on 96-well (black wall/transparent bottom) plates from Costar for 2 days until they reached confluence. […] The cells were preincubated with a concentration range of antagonists for 20 min at RT and Ca^++-signals after addition of the agonists were measured in a Fluorescence Image Plate Reader (FLIPR from Molecular Devices, Crawley, England). […]
PARAMETER_MEASURED: IC50 (µM)

These recorded examples may help you get a feel for the data.
COMPOUND	IC50 (µM)
O=C(c1cc(C(F)(F)F)cc(C(F)(F)F)c1)N1CCC(CN2CCN(C3CCN(c4cnccn4)CC3)CC2)CC1Cc1ccccc1 (stereo not drawn)	7.94
COC1(CN2CCN(C3CCN(S(=O)(=O)c4c(C)noc4C)C3)CC2)CCN(C(=O)c2cc(C(F)(F)F)cc(C(F)(F)F)c2)C(Cc2ccccc2)C1 (stereo not drawn)	3.55

[1] O=C(c1ccccc1)N1CCC(N2CCN(C(=O)[C@H]3CCN(C(=O)c4cc(C(F)(F)F)cc(C(F)(F)F)c4)[C@H](Cc4ccccc4)C3)CC2)CC1
[2] O=C(C1CCOC1)N1CCC(N2CCN(C(=O)[C@H]3CCN(C(=O)c4cc(C(F)(F)F)cc(C(F)(F)F)c4)[C@H](Cc4ccccc4)C3)CC2)C1 (stereo partly drawn)
[3] O=C(c1ccoc1)N1CCC(N2CCN(CC3(O)CCN(C(=O)c4cc(C(F)(F)F)cc(C(F)(F)F)c4)C(Cc4ccccc4)C3)CC2)C1 (stereo not drawn)
Returns the items ordered by IC50, from maximum to minimum. Give me the labels in the order the question wants. 1, 2, 3

====

SYSTEM_UNDER_TEST: NK2 (Homo sapiens, UniProt P21452)
Sequence (P21452 1-398): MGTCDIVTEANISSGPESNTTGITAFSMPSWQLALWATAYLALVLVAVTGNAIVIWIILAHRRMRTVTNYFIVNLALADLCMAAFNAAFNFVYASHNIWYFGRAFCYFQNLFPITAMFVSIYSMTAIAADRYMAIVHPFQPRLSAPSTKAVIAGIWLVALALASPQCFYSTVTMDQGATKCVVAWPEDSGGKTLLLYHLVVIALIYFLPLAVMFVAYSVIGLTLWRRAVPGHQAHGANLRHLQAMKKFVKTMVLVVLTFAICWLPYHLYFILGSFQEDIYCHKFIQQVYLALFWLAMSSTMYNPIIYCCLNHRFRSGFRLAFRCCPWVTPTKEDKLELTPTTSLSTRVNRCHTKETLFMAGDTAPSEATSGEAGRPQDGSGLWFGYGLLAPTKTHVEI
ASSAY_DETAILS: Signal transduction (ST), intracellular Ca++ FLIPR, NK2
Format: cell-based
SETTINGS: antagonist, Ca++ transient peak, read-out: NK2 pIC50 (converted)
Procedure: [The source words this procedure for another target and reports this target under the same test.] This test evaluates in vitro functional NK1 antagonistic activity. For the measurements of intracellular Ca^++ concentrations the cells were grown on 96-well (black wall/transparent bottom) plates from Costar for 2 days until they reached confluence. […] The cells were preincubated with a concentration range of antagonists for 20 min at RT and Ca^++-signals after addition of the agonists were measured in a Fluorescence Image Plate Reader (FLIPR from Molecular Devices, Crawley, England). […]
PARAMETER_MEASURED: IC50

These recorded examples may help you get a feel for the data.
COMPOUND	IC50
Cc1ccc(N2CCC(N3CCN(CC4CCN(C(=O)c5cc(C(F)(F)F)cc(C(F)(F)F)c5)C(Cc5ccccc5)C4)CC3)CC2)nn1 (stereo not drawn) [Compound 18]	> 10 µM
O=C(C1CC1)N1CCC(N2CCN(CC3(O)CCN(C(=O)c4cc(C(F)(F)F)cc(C(F)(F)F)c4)C(Cc4ccccc4)C3)CC2)C1 (stereo not drawn) [Compound 77]	7.94 µM

Please find the next compound below.
// query IC50 value for entry O=C(C1CC1)N1CCC(N2CCN(C[C@H]3CCN(C(=O)c4cc(C(F)(F)F)cc(C(F)(F)F)c4)[C@H](Cc4ccccc4)C3)CC2)C1 (stereo partly drawn) [Compound 61] > 10 µM
